Biological target: P-gp (Homo sapiens (Human))
Test: Bidirectional transport across Caco-2 monolayers (P-gp mediated transport)
Assay type: in vitro ADME
Conditions: human, Caco-2, with cyclosporine A (CSA) 5 μM; 1 μM, with CSA 5 μM
observable: Papp A→B at 120 min, 1 μM (×10⁻⁶ cm/s)
Give bare numbers, in ×10⁻⁶ cm/s.

The recorded Papp A→B at 120 min, 1 μM with P-gp (Homo sapiens (Human)) for CCN1C(=O)N(c2c(F)c(OC)cc(OC)c2F)Cc2cnc3[nH]c(CN4CCOCC4)cc3c21 was 12

====

Biological target: UniProt:P08183
Experiment: Bidirectional transport across Caco-2 monolayers (P-gp mediated transport)
Format: in vitro ADME
Conditions: human, Caco-2; 30 μM, no inhibitor
observable: Papp B→A at 120 min, 30 μM (×10⁻⁶ cm/s)
One number for each entry, in ×10⁻⁶ cm/s.

- compound: "CCN1C(=O)N(c2c(F)c(O)cc(OC)c2F)Cc2cnc3[nH]c(CN4CCOCC4)cc3c21 [Compound 2]"
  Papp B→A at 120 min, 30 μM / ×10⁻⁶ cm/s: 7.7

Kindly review the next compound as well.
The recorded Papp B→A at 120 min, 30 μM with UniProt:P08183 for CCN1C(=O)N(c2c(F)c(OC)cc(OC)c2F)Cc2cnc3[nH]c(CN4CCOCC4)cc3c21 [Compound 1] was 13

====

Molecular target: P-gp (Homo sapiens (Human), UniProt P08183)
Sequence (P08183 whole entry): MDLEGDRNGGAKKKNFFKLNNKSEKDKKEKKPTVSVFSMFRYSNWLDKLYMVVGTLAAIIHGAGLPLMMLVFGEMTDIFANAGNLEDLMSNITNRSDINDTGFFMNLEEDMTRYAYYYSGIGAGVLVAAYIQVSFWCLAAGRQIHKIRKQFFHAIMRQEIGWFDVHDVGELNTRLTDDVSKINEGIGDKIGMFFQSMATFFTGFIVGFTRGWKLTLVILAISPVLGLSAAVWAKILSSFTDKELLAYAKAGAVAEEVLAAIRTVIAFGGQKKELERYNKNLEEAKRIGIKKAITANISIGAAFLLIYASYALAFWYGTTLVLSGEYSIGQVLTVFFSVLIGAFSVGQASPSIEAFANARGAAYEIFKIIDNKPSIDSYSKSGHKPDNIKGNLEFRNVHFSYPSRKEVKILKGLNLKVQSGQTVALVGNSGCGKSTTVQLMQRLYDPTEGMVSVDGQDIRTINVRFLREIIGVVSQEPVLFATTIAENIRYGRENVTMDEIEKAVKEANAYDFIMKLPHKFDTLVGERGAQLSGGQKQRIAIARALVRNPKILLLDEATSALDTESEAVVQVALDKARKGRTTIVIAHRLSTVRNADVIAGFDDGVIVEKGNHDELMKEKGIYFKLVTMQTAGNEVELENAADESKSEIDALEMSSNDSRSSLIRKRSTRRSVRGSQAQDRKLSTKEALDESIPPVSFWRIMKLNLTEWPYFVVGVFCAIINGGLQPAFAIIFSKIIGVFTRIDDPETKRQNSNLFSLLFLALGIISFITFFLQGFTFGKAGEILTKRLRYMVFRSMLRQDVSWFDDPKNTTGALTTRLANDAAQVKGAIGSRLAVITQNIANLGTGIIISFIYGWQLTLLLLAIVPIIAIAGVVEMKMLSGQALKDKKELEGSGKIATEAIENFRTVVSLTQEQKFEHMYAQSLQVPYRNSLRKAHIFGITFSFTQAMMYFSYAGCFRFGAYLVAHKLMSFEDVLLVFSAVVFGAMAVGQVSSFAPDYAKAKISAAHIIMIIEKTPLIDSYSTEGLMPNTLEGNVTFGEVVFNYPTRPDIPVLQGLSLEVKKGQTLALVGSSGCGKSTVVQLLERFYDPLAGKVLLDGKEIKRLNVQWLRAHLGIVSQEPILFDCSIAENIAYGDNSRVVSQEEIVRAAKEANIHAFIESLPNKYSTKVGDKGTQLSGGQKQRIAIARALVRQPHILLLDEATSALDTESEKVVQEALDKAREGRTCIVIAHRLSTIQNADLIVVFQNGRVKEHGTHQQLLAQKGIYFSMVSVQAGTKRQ
Test: Bidirectional transport across Caco-2 monolayers (P-gp mediated transport)
Format: in vitro ADME
Conditions: human, Caco-2, with cyclosporine A (CSA) 10 μM; 3 μM, with CSA 10 μM
observable: Papp A→B at 120 min, 3 μM (×10⁻⁶ cm/s)
Give bare numbers, in ×10⁻⁶ cm/s.

// Papp A→B at 120 min, 3 μM lookup, compound = CCN1C(=O)N(c2c(F)c(O)cc(OC)c2F)Cc2cnc3[nH]c(CN4CCOCC4)cc3c21 , result: 0.65

====

I'd appreciate it if you could supply % of Administered Dose in Feces Samples values for the items below.
Experiment: Compound 1 human absorption, metabolism, and excretion study (single oral dose of [14C] Compound 1)
Format: in vivo
Conditions: feces, 24-48 h
Numbers only, in %.

- structure: "CCN1C(=O)N(c2c(F)c(OC)cc(OC)c2F)Cc2cnc3[nH]c(CN4CCOCC4)cc3c21"
  unit.of.measure: "%"
  assay.value: 0.6
- structure: "CCN1C(=O)N(c2c(F)c(O)cc(OC)c2F)Cc2cnc3[nH]c(CN4CCOCC4)cc3c21"
  unit.of.measure: "%"
  assay.value: 11.4
- structure: "CCN1C(=O)N(c2c(F)c(O)cc(OC)c2F)Cc2cnc3[nH]c(C(=O)O)cc3c21"
  unit.of.measure: "%"
  assay.value: 0.4

Kindly review the next compound as well.
// % of Administered Dose in Feces Samples lookup, compound = CCN1C(=O)N(c2c(F)c(O)cc(O)c2F)Cc2cnc3[nH]c(CN4CCOCC4)cc3c21 , result: 0.5

====

Target: P-gp (Homo sapiens (Human), UniProt P08183)
Experiment: Bidirectional transport across Caco-2 monolayers (P-gp mediated transport)
Type: in vitro ADME
Conditions: human, Caco-2, with cyclosporine A (CSA) 10 μM; 3 μM, with CSA 10 μM
observable: Papp B→A at 120 min, 3 μM

The recorded Papp B→A at 120 min, 3 μM with P-gp (Homo sapiens (Human), UniProt P08183) for CCN1C(=O)N(c2c(F)c(O)cc(OC)c2F)Cc2cnc3[nH]c(CN4CCOCC4)cc3c21 was 2.2 ×10⁻⁶ cm/s

====

Biological target: tyrosine-phosphorylated Fibroblast Growth Factor Receptor 2 alpha (FGFR2α) in KATO III cells (Homo sapiens, UniProt P21802)
Sequence (P21802 22-821 limits assumed): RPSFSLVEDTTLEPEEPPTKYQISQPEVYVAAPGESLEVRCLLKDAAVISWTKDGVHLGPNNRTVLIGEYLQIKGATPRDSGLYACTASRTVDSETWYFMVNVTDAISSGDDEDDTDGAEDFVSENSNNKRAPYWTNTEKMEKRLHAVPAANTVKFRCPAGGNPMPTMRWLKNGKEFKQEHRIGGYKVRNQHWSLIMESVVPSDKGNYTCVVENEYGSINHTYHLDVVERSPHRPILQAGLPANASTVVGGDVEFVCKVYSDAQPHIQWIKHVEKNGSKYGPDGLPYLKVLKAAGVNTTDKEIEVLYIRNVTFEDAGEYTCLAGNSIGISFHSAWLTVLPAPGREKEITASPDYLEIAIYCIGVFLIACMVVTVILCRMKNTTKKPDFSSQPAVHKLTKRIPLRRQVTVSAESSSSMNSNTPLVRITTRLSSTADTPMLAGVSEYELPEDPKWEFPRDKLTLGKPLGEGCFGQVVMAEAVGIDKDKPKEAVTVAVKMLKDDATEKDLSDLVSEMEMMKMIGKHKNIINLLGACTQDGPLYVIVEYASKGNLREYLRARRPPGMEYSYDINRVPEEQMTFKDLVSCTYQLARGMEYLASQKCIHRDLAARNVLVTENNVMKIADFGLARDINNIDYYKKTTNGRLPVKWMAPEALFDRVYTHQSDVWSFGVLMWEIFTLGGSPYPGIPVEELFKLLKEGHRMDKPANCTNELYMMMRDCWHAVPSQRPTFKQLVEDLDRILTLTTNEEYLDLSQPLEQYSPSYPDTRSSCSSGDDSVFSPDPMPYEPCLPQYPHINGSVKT
Experiment: KATOIII Whole Blood pFGFR2α ELISA Assay
Type: cell-based
Conditions: read-out: FGFR2_WB_ELISA-KATOIII IC50; KATO III cells spiked into human whole blood, 4 hours
observable: IC50

// IC50 lookup, compound = CCN1C(=O)N(c2c(F)c(OC)cc(OC)c2F)C(O)c2cnc3[nH]c(CN4CCOCC4)cc3c21 (stereo not shown) , result: 1 to 3 µM

====

Molecular target: P-gp (Homo sapiens (Human), UniProt P08183)
Experiment: Bidirectional transport across Caco-2 monolayers (P-gp mediated transport)
Format: in vitro ADME
Settings: human, Caco-2, with cyclosporine A (CSA) 10 μM; 30 μM, with CSA 10 μM; read-out: Efflux Ratio (B-A/A-B)
observable: efflux ratio at 120 min, 30 μM
One number for each entry.

// efflux ratio at 120 min, 30 μM lookup, compound = CCN1C(=O)N(c2c(F)c(O)cc(OC)c2F)Cc2cnc3[nH]c(CN4CCOCC4)cc3c21 , result: 1.5

====

Target: P-gp (Homo sapiens (Human), UniProt P08183)
Assay: Bidirectional transport across Caco-2 monolayers (P-gp mediated transport)
Assay type: in vitro ADME
Conditions: human, Caco-2; 1 μM, no inhibitor
observable: Papp A→B at 120 min, 1 μM (×10⁻⁶ cm/s)
Give bare numbers, in ×10⁻⁶ cm/s.

// Papp A→B at 120 min, 1 μM lookup, molecule = CCN1C(=O)N(c2c(F)c(OC)cc(OC)c2F)Cc2cnc3[nH]c(CN4CCOCC4)cc3c21 , result: 7.3

====

Experiment: Compound 1 human absorption, metabolism, and excretion study (single oral dose of [14C] Compound 1)
Assay type: in vivo
Settings: feces, 96-120 h
observable: % of Administered Dose in Feces Samples
Please state the value followed by its unit.

// known answers, use as guide
- structure: "CCN1C(=O)N(c2c(F)c(OC)cc(OC)c2F)Cc2cnc3[nH]c(CN4CCOCC4)cc3c21"
  observable: "% of Administered Dose in Feces Samples"
  assay.value: "0.0%"
- structure: "CCN1C(=O)N(c2c(F)c(O)cc(O)c2F)Cc2cnc3[nH]c(CN4CCOCC4)cc3c21"
  observable: "% of Administered Dose in Feces Samples"
  assay.value: "0.2%"

I need % of Administered Dose in Feces Samples for every entry listed below, if you could help.
1. CCN1C(=O)N(c2c(F)c(O)cc(OC)c2F)Cc2cnc3[nH]c(C(=O)O)cc3c21
2. CCN1C(=O)N(c2c(F)c(O)cc(OC)c2F)Cc2cnc3[nH]c(CN4CCOCC4)cc3c21

["0.0%", "1.6%"]

====

Target: P-gp (Homo sapiens (Human), UniProt P08183)
Test: Bidirectional transport across Caco-2 monolayers (P-gp mediated transport)
Assay type: in vitro ADME
Details: human, Caco-2, with cyclosporine A (CSA) 10 μM; 30 μM, with CSA 10 μM
observable: Papp A→B at 120 min, 30 μM (×10⁻⁶ cm/s)
Answers are plain numbers, in ×10⁻⁶ cm/s.

// Papp A→B at 120 min, 30 μM lookup, molecule = CCN1C(=O)N(c2c(F)c(O)cc(OC)c2F)Cc2cnc3[nH]c(CN4CCOCC4)cc3c21 , result: 2

====

I'd appreciate it if you could supply % of Administered Dose in Feces Samples values for the items below.
Experiment: Compound 1 human absorption, metabolism, and excretion study (single oral dose of [14C] Compound 1)
Type: in vivo
Details: feces, 48-72 h
Numbers only, in %.

- compound: "CCN1C(=O)N(c2c(F)c(O)cc(OC)c2F)Cc2cnc3[nH]c(C(=O)O)cc3c21 [Compound 5]"
  % of Administered Dose in Feces Samples [%]: 0.6
- compound: "CCN1C(=O)N(c2c(F)c(O)cc(O)c2F)Cc2cnc3[nH]c(CN4CCOCC4)cc3c21 [Compound 4]"
  % of Administered Dose in Feces Samples [%]: 2.3
- compound: "CCN1C(=O)N(c2c(F)c(OC)cc(OC)c2F)Cc2cnc3[nH]c(CN4CCOCC4)cc3c21 [Compound 1]"
  % of Administered Dose in Feces Samples [%]: 0.4

Kindly review the next compound as well.
// % of Administered Dose in Feces Samples lookup, compound = CCN1C(=O)N(c2c(F)c(O)cc(OC)c2F)Cc2cnc3[nH]c(CN4CCOCC4)cc3c21 [Compound 2] , result: 14.5

====

Target: P-gp (Homo sapiens (Human))
Assay: Bidirectional transport across Caco-2 monolayers (P-gp mediated transport)
Type: in vitro ADME
Conditions: human, Caco-2, with cyclosporine A (CSA) 5 μM; 30 μM, with CSA 5 μM
observable: Papp B→A at 120 min, 30 μM
Please state the value followed by its unit.

// Papp B→A at 120 min, 30 μM lookup, compound = CCN1C(=O)N(c2c(F)c(OC)cc(OC)c2F)Cc2cnc3[nH]c(CN4CCOCC4)cc3c21 , result: 12 ×10⁻⁶ cm/s

====

Molecular target: P-gp (Homo sapiens (Human))
Experiment: Bidirectional transport across Caco-2 monolayers (P-gp mediated transport)
Type: in vitro ADME
Conditions: human, Caco-2, with cyclosporine A (CSA) 10 μM; 3 μM, with CSA 10 μM; read-out: Efflux Ratio (B-A/A-B)
observable: efflux ratio at 120 min, 3 μM
Answers are plain numbers.

// efflux ratio at 120 min, 3 μM lookup, molecule = CCN1C(=O)N(c2c(F)c(O)cc(OC)c2F)Cc2cnc3[nH]c(CN4CCOCC4)cc3c21 [Compound 2] , result: 3.3
